MEASURED TARGET: HIPK3 (Homo sapiens)
Construct: purchased Carna Biosciences
Sequence (Q9H422 whole entry): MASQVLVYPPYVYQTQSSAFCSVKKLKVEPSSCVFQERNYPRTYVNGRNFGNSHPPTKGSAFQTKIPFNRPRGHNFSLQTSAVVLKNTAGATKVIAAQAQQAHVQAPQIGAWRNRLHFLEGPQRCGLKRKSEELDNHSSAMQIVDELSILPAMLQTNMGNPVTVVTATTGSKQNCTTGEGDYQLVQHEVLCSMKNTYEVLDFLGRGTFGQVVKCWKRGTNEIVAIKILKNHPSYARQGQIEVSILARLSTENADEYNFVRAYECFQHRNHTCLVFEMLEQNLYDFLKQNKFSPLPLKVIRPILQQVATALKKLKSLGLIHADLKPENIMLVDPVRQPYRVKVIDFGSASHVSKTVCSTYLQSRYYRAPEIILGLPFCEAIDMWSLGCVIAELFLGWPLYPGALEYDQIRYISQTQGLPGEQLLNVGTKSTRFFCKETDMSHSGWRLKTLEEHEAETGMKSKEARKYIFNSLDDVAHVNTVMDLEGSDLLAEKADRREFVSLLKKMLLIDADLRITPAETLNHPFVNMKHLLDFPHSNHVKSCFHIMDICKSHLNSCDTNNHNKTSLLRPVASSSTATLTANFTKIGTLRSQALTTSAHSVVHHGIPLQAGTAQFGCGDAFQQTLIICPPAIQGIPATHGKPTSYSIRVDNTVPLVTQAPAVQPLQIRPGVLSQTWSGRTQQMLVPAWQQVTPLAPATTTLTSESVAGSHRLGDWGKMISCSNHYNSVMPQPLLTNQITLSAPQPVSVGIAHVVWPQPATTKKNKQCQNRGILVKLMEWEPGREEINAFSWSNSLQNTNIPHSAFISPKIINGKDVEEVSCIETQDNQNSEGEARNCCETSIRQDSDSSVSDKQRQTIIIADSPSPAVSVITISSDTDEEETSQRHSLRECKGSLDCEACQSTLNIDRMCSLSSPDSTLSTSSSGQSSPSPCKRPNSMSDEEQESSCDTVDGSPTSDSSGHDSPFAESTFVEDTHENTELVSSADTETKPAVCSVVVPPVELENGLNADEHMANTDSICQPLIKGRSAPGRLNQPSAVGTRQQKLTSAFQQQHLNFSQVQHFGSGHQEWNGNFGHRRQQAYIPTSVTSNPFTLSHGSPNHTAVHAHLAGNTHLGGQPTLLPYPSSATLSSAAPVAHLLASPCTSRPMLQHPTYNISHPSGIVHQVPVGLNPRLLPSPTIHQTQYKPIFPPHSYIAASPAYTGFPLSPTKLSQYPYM
PROTOCOL DESCRIPTION: Kinase panel profiling at 1 µmol/L (mobility shift assay, Carna)
Format: biochemical
TEST CONDITIONS: 1 µmol/L of BTK inhibitor
EXPERIMENTAL ENDPOINT: Percentage inhibition of kinase enzyme activity (%)
# output: bare number, implied unit %

Below, 3 compounds whose answers are already recorded.
# COMPOUND, OUTPUT UNIT, ASSAY VALUE
rows = [
    ("C=CC(=O)N1CCC[C@@H](n2nc(-c3ccc(Oc4ccccc4)cc3)c3c(N)ncnc32)C1 [ibrutinib]", "%", 1.67),
    ("CC#CC(=O)N1CCC[C@H]1c1nc(-c2ccc(C(=O)Nc3ccccn3)cc2)c2c(N)nccn12 [acalabrutinib]", "%", -12.04),
    ("O=C(c1ccc(Oc2ccccc2)cc1Cl)c1c[nH]c2ncnc(N[C@@H]3CC[C@@H](CO)OC3)c12 [nemtabrutinib]", "%", 5.34),
]

As a next step, examine the compound that follows.
Exercise: Dear colleague, I am looking for the recorded Percentage inhibition of kinase enzyme activity of the following compound: COc1ccc(F)cc1C(=O)NCc1ccc(-c2nn([C@@H](C)C(F)(F)F)c(N)c2C(N)=O)cc1 [pirtobrutinib]
Key: 3.06
